In this section, each of the compounds is paired with its reported absorption maximum.
Assay: solvent given as SMILES
Conditions: in C1CCOC1
Express your answer in nm, writing the number without its unit.

Example results:
COc1ccc(-c2cc3c(s2)-c2sc(-c4ccc(OC)cc4)cc2P(c2ccccc2)(c2ccccc2)=[O+][B-]3(c2c(C)cc(C)cc2C)c2c(C)cc(C)cc2C)cc1 : 415
CCC1=C(C)C2=C(c3cc(C4=C5C(C)=C(CC)C(C)=[N+]5[B-](F)(F)n5c(C)c(CC)c(C)c54)cc(C4=C5C(C)=C(CC)C(C)=[N+]5[B-](F)(F)n5c(C)c(CC)c(C)c54)c3)c3c(C)c(CC)c(C)n3[B-](F)(F)[N+]2=C1C : 534
COC(C)CC1=N/C(=C\c2cccc(N(C)C)c2)C(=O)N1C (configuration not stated) : 355

Request: Give its absorption maximum value. Item: CN(C)c1ccc(/C=C/c2nc3c4ccccc4c4ccccc4c3[nH]2)cc1
Result: 390

Request: Give its absorption maximum value. Item: CCOC(=O)C1=CN(c2ccccc2)C=C(C(=O)OCC)C1c1ccccc1
Result: 362

Request: Give its absorption maximum value. Item: O=C1C=C(Nc2ccccc2)CCC1
Result: 302

Request: Give its absorption maximum value. Item: CC(C)(C)c1ccc(-c2c(-c3cccc(-n4c5ccccc5c5ccccc54)c3)c(C#N)c(-c3cccc(-n4c5ccccc5c5ccccc54)c3)c(-c3ccc(C(C)(C)C)cc3)c2-c2ccc(C(C)(C)C)cc2)cc1
Result: 360
